- Test system: six V600E BRAF melanoma cell lines
- test.name: Screening of recombinant RTK ligands for ability to confer resistance to BRAFi (PLX4720) or MEKi (PD184352) (Table 4)
- Format: cell-based, human
- Design: scale not given here
- condition.set: SK-MEL-28, PD184352 - 1 uM, ligand 1.6 ng/ml
property.name: ability of recombinant RTK ligand to confer resistance

VEGF-C (protein, UniProt P49767 112-227, looked up) Vascular endothelial growth …: AHYNTEILKSIDNEWRKTQCMPREVCIDVGKEFGVATNTFFKPPCVSVYRCGGCCNSEGLQCMNTSTSYLSKTLFEITVPLSQGPKPVTISFANHTSCRCMSKLDVYRQVHSIIRR; 1.09

Now consider a different molecule.
Inquiry: For the molecule flt-3 ligand (FL) (protein, UniProt P49771 27-235, looked up) Fms-related tyrosine kinase 3 …: TQDCSFQHSPISSDFAVKIRELSDYLLQDYPVTVASNLQDEELCGGLWRLVLAQRWMERLKTVAGSKMQGLLERVNTEIHFVTKCAFQPPPSCLRFVQTNISRLLQETSEQLVALKPWITRQNFSRCLELQCQPDSSTLPPPWSPRPLEATAPTAPQPPLLLLLLLPVGLLLLAAAWCLHWQRTRRRTPRPGEQVPPVPSPQDLLLVEH , what ability of recombinant RTK ligand to confer resistance is on record?
Reply text: 0.95
